# System: OVCAR-8 ovarian
# procedure_details: NCI tumour cell line growth inhibition, 48 h
We begin with a simple list: items and their reported GI50.
measured_parameter: GI50

>>> observed_result("O=C(CN1C(=O)S/C(=C\\C(Cl)=C\\c2ccccc2)C1=O)NCCCn1ccnc1")
"2850 nM"
>>> observed_result("O=C1COCCN1c1ccc(NCc2cn(C(=O)c3ccc(Cl)cc3)c3ccccc23)cc1")
"5040 nM"
>>> observed_result("NS(=O)(=O)c1ccc(N2N=C(c3cccs3)CC2c2ccccc2O)cc1 (centres undefined)")
"907 nM"
>>> observed_result("Cc1ccc(S(=O)(=O)Nc2cc(Sc3ccccc3)c(O)c3ccccc23)cc1")
"2280 nM"
